target: Sphingosine 1-phosphate receptor 2 (Homo sapiens); experiment: Inhibition of S1P2 receptor at 25 uM
Reported inhibition values for the following molecules.
assay_readout: inhibition

[
  {
    "smiles_notation": "Cc1cc(O)cc(C)c1NC(=O)c1ccc(-c2cc(Cl)ccc2Cl)o1",
    "measured_result": "90%"
  },
  {
    "smiles_notation": "Cc1cc(OCCO)cc(C)c1NC(=O)c1ccc(-c2cc(Cl)ccc2Cl)o1",
    "measured_result": "90%"
  }
]

###

target: Sphingosine 1-phosphate receptor 2 (Homo sapiens, UniProt O95136); assay: Inhibition of S1P2 receptor at 25 uM
Sequence (O95136 whole entry): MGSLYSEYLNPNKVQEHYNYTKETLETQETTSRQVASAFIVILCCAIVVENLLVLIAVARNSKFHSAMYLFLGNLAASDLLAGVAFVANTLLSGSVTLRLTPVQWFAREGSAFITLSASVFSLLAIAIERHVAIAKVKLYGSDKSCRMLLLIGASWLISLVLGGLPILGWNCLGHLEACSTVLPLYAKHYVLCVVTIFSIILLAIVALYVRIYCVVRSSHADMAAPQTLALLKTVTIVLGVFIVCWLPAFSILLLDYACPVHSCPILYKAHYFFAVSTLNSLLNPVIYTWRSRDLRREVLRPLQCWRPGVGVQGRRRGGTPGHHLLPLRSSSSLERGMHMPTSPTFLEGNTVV
Returns class 1 if the recorded inhibition is greater than or equal to 80%, and class 0 otherwise.

[
  {
    "smiles_notation": "CCc1cccc(C)c1NC(=O)c1ccc(-c2cc(Cl)ccc2Cl)o1",
    "assigned_class": "class 0"
  },
  {
    "smiles_notation": "Cc1ccsc1-c1ccc(C(=O)Nc2c(C)cc(CO)cc2C)o1",
    "assigned_class": "class 1"
  },
  {
    "smiles_notation": "Cc1cc(CN)cc(C)c1NC(=O)c1ccc(-c2cc(Cl)ccc2Cl)o1",
    "assigned_class": "class 1"
  },
  {
    "smiles_notation": "COc1cc(C)c(NC(=O)c2ccc(-c3cc(Cl)ccc3Cl)o2)c(C)c1",
    "assigned_class": "class 0"
  },
  {
    "smiles_notation": "Cc1cc(CO)cc(C)c1NC(=O)c1ccc(-c2cc(Cl)ccc2Cl)o1",
    "assigned_class": "class 1"
  }
]
